The values you see were collected from patent US10774051B2.

Each item that follows carries a reported IC50.
- studySystem: human P2X7 receptor (Homo sapiens, UniProt Q99572, R270H/Y155H)
- protocolNotes: Evaluation of human P2X7 receptor inhibitory activity (Yo-Pro uptake, BzATP stimulation, FLIPR TETRA)
- Assay type: cell-based
- conditionInfo: 1321N1 cells stably expressing human P2X7 receptor; BzATP stimulation, Yo-Pro uptake; read-out: IC50 (antagonistic activity for the human P2X7 receptor), class symbol

Consider the following illustrative entries.
CCOc1cc(C)c(Nc2nc(=O)c(OC)cn2Cc2ccc(F)c(Cl)c2)cc1C [Compound I-0231] :: < 10 nM
COc1cn(Cc2cc(Cl)cc(Cl)c2)c(Nc2cccc(Cl)c2C)nc1=O [Compound I-0317] :: 100 to 500 nM
COc1cn(Cc2cc(F)cc(Cl)c2)c(Nc2cc(C)c(Cl)cc2C)nc1=O [Compound I-0385] :: 10 to 100 nM
COc1cn(Cc2ccccc2OC(F)F)c(Nc2cccc(Cl)c2C)nc1=O [Compound I-0446] :: < 10 nM
CCc1cc(F)ccc1Nc1nc(=O)c(OC)cn1Cc1ccccc1 [Compound I-0400] :: 100 to 500 nM

Value of IC50 reported for the compound COc1cn(Cc2ccccc2)c(Nc2cccc(-n3cccc3)c2C)nc1=O [Compound I-0091] is 100 to 500 nM

Entry CCc1ccc(Nc2nc(=O)c(OC)cn2Cc2ccccc2)c(CC)c1 [Compound I-0210] ; IC50 = 10 to 100 nM

Documented IC50 of COc1ccc(C)c(Nc2nc(=O)c(OC)cn2Cc2ccccc2)c1 [Compound I-0074] : 10 to 100 nM

Reported IC50 for COc1cn(Cc2ccc(F)c(Cl)c2)c(Nc2cc(-c3nnco3)ccc2C)nc1=O [Compound I-0379] was < 10 nM

---

Reported pIC50 is given for each of the following compounds.
- studySystem: human P2X7 receptor (Homo sapiens, UniProt Q99572, R270H/Y155H)
- protocolNotes: Evaluation of human P2X7 receptor inhibitory activity (Yo-Pro uptake, BzATP stimulation, FLIPR TETRA)
- Type: cell-based
- conditionInfo: antagonistic activity for the human P2X7 receptor; read-out: IC50
pIC50: −log10 of the molar value.

In the examples that follow, each entry is paired with its recorded pIC50.
Cc1ccc(-c2ncco2)cc1Nc1nc(=O)c(Cl)cn1Cc1ccc(F)c(Cl)c1 [Compound I-0852] :: > 8.00
CCOC(=O)c1cn(Cc2cc(F)c(F)c(F)c2)c(Nc2ccc(OC(F)F)cc2C)nc1=O [Compound I-1121] :: 6.30 to 7.00
COc1cc(C)c(Nc2nc(=O)c(OC)cn2Cc2cc(F)c(F)c(F)c2)cc1Cl [Compound I-0763] :: > 8.00
COc1cn(Cc2cc(F)cc(Cl)c2)c(Nc2cc(-c3cccnc3)ccc2C)nc1=O [Compound I-0765] :: 7.00 to 8.00
COc1cn(Cc2ccc(F)c(Cl)c2)c(Nc2cc3c(cc2C)OCCC3=O)nc1=O [Compound I-0930] :: 6.30 to 7.00
COCc1cn(Cc2cc(F)c(F)c(F)c2)c(Nc2cc(C)c(OC)cc2C)nc1=O [Compound I-1156] :: > 8.00
COc1cn(Cc2ccc(F)c(Cl)c2)c(Nc2cc(OC(F)F)ccc2C)nc1=O [Compound I-0871] :: 7.00 to 8.00
COc1cn(Cc2ccccc2)c(Nc2cccc(C)c2F)nc1=O [Compound I-0761] :: 6.30 to 7.00

The compound COc1cn(Cc2cc(F)cc(Cl)c2)c(Nc2ccc(OC(F)F)cc2C)nc1=O [Compound I-0613] , when measured on human P2X7 receptor (Homo sapiens, UniProt Q99572, R270H/Y155H), yielded pIC50 of 7.00 to 8.00

Fill in: human P2X7 receptor (Homo sapiens, UniProt Q99572, R270H/Y155H) pIC50 for COc1cn(Cc2ccc(F)c(F)c2)c(Nc2cc(Cl)c(F)cc2C)nc1=O [Compound I-0810] = 7.00 to 8.00
